Reported Kd values for a set of binders
# measured target: T1, recombinant mouse VISTA (His-tagged) (mouse, UniProt Q9D659 33-191)
# T1 construct: also called murine VISTA; mVISTA
# T1 sequence (looked up): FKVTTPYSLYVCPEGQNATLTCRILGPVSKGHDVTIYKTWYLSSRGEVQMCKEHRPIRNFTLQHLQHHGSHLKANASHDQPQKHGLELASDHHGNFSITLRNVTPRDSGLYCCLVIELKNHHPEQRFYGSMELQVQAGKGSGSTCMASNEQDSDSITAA
# assay method text: BLI (Octet), 1:1 global fit, mouse VISTA captured
Just the number in nM, nothing appended.

>  <binder>
anti-VISTA clone V4-C27 IgG1 (antibody, V domains shown) VH: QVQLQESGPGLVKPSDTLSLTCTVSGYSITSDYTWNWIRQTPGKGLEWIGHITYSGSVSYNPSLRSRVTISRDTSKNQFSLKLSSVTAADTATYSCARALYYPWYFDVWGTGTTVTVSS VL: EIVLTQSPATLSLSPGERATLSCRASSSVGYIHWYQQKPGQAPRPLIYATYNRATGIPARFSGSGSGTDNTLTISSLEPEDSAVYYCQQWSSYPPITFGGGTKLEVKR

>  <Kd (nM)>
0.395

$$$$
>  <binder>
anti-VISTA clone V4-C24 IgG1 (antibody, V domains shown) VH: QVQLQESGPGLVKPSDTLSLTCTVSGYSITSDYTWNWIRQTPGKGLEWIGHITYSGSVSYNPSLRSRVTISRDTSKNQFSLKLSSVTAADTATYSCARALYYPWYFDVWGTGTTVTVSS VL: EIVLTQSPATLSLSPGERATLSCRASSSVGYIHWYQQKPGQAPRPLIYTTSYRATGIPARFSGSGSGTDNTLTISSLEPEDSAVYYCQQWSSYPPITFGGGTKLEVKR

>  <Kd (nM)>
0.202

$$$$
>  <binder>
anti-VISTA clone V4-C1 IgG1 (antibody, V domains shown) VH: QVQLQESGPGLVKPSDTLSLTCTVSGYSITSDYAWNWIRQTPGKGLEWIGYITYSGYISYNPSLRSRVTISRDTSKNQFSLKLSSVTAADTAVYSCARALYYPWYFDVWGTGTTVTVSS VL: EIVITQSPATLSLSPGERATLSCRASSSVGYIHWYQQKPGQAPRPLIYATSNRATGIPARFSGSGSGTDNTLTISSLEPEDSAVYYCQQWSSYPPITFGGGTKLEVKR

>  <Kd (nM)>
58.5

$$$$

Now, please, on to the next binder.
What value of measured Kd is listed for anti-VISTA clone V4-C9 IgG1 (antibody, V domains shown) VH: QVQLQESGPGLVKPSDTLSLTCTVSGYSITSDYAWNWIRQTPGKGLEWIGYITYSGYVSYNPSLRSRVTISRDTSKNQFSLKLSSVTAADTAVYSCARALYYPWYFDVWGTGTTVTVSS VL: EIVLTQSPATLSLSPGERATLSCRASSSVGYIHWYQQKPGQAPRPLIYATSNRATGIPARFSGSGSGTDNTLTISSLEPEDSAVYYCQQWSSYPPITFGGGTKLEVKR ?
2.88

Data credit: patent US20250313631A1
